# test.system: HLA-B*51:01
# assay.remarks: IEDB peptide-MHC binding, purified MHC/competitive/radioactivity; filed as Kd, often an IC50 or EC50 that approximates it; bounds were set here for any values at or beyond the usual limits of such assays
# recorded.conditions: source organism: Vaccinia virus WR
pKd: −log10 of the molar value.
measurement.type: pKd

These solved cases illustrate the format of a correct answer.
construct.sequence | pKd
GPMPYMISTY | ≤ 4.19
AFVRFSTDK | ≤ 4.11

GET /values?readout=pKd&item= VPAAIMMIL
≤ 4.11

* * *

Below, each entry is listed alongside its reported Kd.
# test.system: HLA-A*02:03
# assay.remarks: IEDB peptide-MHC binding, purified MHC/competitive/radioactivity; filed as Kd, often an IC50 or EC50 that approximates it; bounds were set here for any values at or beyond the usual limits of such assays
# recorded.conditions: source organism: Vaccinia virus WR
The response must be a number in nM with no trailing unit.

construct.sequence | measurement.type | experimental.value
GMQFDKVYL | Kd | 277
IAGLKIEEI | Kd | 6090
NTIAVITETI | Kd | 56.3
LTSVDIETAI | Kd | 2150
DTCLLAISAV | Kd | 93.1
DTDIVNNFI | Kd | 19400

We now examine a further sequence.
GET /values?readout=Kd&item= AIRAGYSIV
0.211
